Target: PSMA (Homo sapiens)
Sequence (Q04609 whole entry): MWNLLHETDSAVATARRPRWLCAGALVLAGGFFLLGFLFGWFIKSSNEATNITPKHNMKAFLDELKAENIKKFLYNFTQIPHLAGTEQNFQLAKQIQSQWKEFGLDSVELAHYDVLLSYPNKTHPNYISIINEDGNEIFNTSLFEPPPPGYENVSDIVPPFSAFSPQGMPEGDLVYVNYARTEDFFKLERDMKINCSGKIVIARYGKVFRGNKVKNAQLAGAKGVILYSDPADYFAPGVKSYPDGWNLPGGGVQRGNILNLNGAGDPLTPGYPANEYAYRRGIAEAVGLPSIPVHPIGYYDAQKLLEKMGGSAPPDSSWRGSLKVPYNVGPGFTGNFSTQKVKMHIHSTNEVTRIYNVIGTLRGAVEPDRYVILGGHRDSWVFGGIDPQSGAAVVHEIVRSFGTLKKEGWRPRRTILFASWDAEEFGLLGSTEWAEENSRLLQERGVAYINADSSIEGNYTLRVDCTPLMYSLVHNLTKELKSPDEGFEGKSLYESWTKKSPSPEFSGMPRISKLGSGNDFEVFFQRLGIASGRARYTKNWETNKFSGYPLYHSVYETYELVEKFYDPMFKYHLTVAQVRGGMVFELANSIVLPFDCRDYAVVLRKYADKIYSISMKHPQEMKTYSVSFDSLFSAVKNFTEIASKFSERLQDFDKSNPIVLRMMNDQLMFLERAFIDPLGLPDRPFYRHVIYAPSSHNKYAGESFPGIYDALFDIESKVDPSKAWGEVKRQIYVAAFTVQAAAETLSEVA
Assay: Competitive binding assay on C4-2 cells
Details: reference ^68Ga-labelled PSMA-HBED-CC dimer (PSMA-10), mean ± SD
pKi: −log10 of the molar value.
quantity_measured: pKi

NC(=O)CN1CCN(CC(N)=O)CCN(CC(N)=O)C(Cc2ccc(NC(=S)NCC3CCC(C(=O)NC(Cc4ccc5ccccc5c4)C(=O)NCCCC[C@H](NC(=O)N[C@@H](CCC(=O)O)C(=O)O)C(=O)O)CC3)cc2)CN(CC(N)=O)CC1 (stereo partly shown) [CA009]; 7.82
NC(=O)CN1CCN(CC(N)=O)CCN(CC(=O)NC(Cc2ccc3ccccc3c2)C(=O)NCCCC[C@H](NC(=O)N[C@@H](CCC(=O)O)C(=O)O)C(=O)O)CCN(CC(N)=O)CC1 (stereo partly shown) [CA011]; 7.55
NC(=O)CN1CCN(CC(N)=O)CCN(CC(=O)NCC2CCC(C(=O)NC(Cc3ccc4ccccc4c3)C(=O)NCCCC[C@H](NC(=O)N[C@@H](CCC(=O)O)C(=O)O)C(=O)O)CC2)CCN(CC(N)=O)CC1 (stereo partly shown) [CA012]; 7.61
NC(=O)CN1CCN(CC(N)=O)CCN(CC(N)=O)C(Cc2ccc(NC(=S)NC(Cc3ccc4ccccc4c3)C(=O)NCCCC[C@H](NC(=O)N[C@@H](CCC(=O)O)C(=O)O)C(=O)O)cc2)CN(CC(N)=O)CC1 (stereo partly shown) [CA008]; 7.54
